- System: SEM cells
- experiment-summary: AUC of viability dose-response curve (% viability x log10 dose units); higher = less sensitive
- experimental-parameters: HPLM + 10% dialyzed FBS; 48 h
Could you please report measured AUC of viability dose-response curve for the items listed next?
Numbers only.

As a guide, the following entries are already answered.
N[S+](=O)([O-])OC[C@@H]1C[C@@H](n2ccc3c(N[C@H]4CCc5ccccc54)ncnc32)C[C@@H]1O: 352
CCOC(=O)\C1=C\[C@@H](OC(CC)CC)[C@H](NC(C)=O)[C@@H](N)C1: 416

The following compounds each have a reported value; give each one's AUC of viability dose-response curve.
1. CCOC(=O)Nc1ccc(NCc2ccc(F)cc2)nc1N
2. COc1cc(O)c2c(c1)C(=O)c1cc(C)cc(O)c1C2=O
3. OCCC#Cc1nc(-c2ccc(F)cc2)c(-c2ccncc2)n1CCCc1ccccc1
4. Clc1ccc(COC(Cn2ccnc2)c2ccc(Cl)cc2Cl)c(Cl)c1 (stereo not given)

RESULT:
467
427
475
462

The values you see were collected from the supplement of paper PMC11451515.
